system tested: CHO-CHOP luciferase reporter, UPR activation, luminescence
assay summary: CHOP reporter induction, apoptotic UPR branch – CHO-CHOP cells, luciferase luminescence, confirmation (AID 489024);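 further: compounds added alone to reporter cells with no tunicamycin stress co-treatment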
Active and inactive are the calls of the source.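 How the source made its calls: active means compounds whose mean EC50, the dose giving half the maximal reporter activation, is at or below a set limit; inactive means the rest.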
// one of YES for active, NO for inactive, no free text

Example entries and their recorded answers appear below.
structure_notation=COC(=O)C(=Cc1ccc(OCc2ccc([N+](=O)[O-])cc2)c(OC)c1)C(=O)OC class_name=YES
structure_notation=CCOC(=O)c1cnc(Nc2nc3ccccc3o2)nc1CSC(=S)N1CCCCC1 class_name=YES
structure_notation=CCn1cc(C(=O)NC(=S)Nc2sc3c(c2C(=O)OC)CCCCCC3)cn1 class_name=NO
structure_notation=CC1(C)CC(=O)C(=Cc2cn(-c3ccccc3)nc2-c2ccc(Cl)cc2)C(=O)C1 class_name=YES

What was the test verdict on Oc1ccc(/C=N/Nc2cc(N3CCCC3)nc(N3CCCC3)n2)cc1O ?
YES

* * *

system tested: CHO-CHOP luciferase reporter, UPR activation, luminescence
assay summary: CHOP reporter induction, apoptotic UPR branch – CHO-CHOP cells, luciferase luminescence, confirmation (AID 489024);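 further: compounds added alone to reporter cells with no tunicamycin stress co-treatment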
The source made the active and inactive calls.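 Rule for the calls: active = compounds whose mean EC50, the dose giving half the maximal reporter activation, is at or below a set limit; inactive = the rest.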
metric name: EC50

molecule="Cn1c(SCC(=O)NCC2CCCO2)ncc(C(=O)Nc2ccc(Cl)cc2)c1=O (stereo not given)" metric_name=EC50 endpoint_value="16 µM"
molecule=Cc1cc(C)c2c(c1)/C(=c1/sc3n(c1=O)CN(c1ccccc1)CN=3)C(=O)N2 metric_name=EC50 endpoint_value="11.6 µM"
molecule="COc1ccc2cc1Oc1ccc(cc1)CC1c3c(cc(OC)c4c3Oc3cc5c(cc3O4)CCNC5C2)CCN1C (stereo not given)" metric_name=EC50 endpoint_value="> 80 µM (inactive)"
molecule=COc1ccccc1N1CCN(Cc2ccc(O)c3ncccc23)CC1 metric_name=EC50 endpoint_value="14.7 µM"

Next, consider the following molecule.
Please report the measured EC50 for COc1cc(C(Nc2ccccn2)c2ccc3ccc(C)nc3c2O)cc(OC)c1O (stereo not given) tested on CHO-CHOP luciferase reporter, UPR activation, luminescence.
6.83 µM

* * *

system tested: CHO-CHOP luciferase reporter, UPR activation, luminescence
assay summary: CHOP reporter induction, apoptotic UPR branch – CHO-CHOP cells, luciferase luminescence, confirmation (AID 489024);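 further: compounds added alone to reporter cells with no tunicamycin stress co-treatment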
Calls of active or inactive are those of the source.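 The calls were made as follows: active = compounds whose mean EC50, the dose giving half the maximal reporter activation, is at or below a set limit; inactive = the rest.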
// one of Y = active, N = inactive, no free text

Example entries and their recorded answers appear below.
structure_notation=O=C(N/N=C(\c1ccccc1)c1ccccn1)c1cccc([N+](=O)[O-])c1 class_name=Y
structure_notation=Cc1coc2c1C(=O)C(=O)c1c-2ccc2c(C)cccc12 class_name=N
structure_notation=Cc1ccc(Sc2ccc(/C=C3/C(=O)NN(c4ccccc4)C3=O)o2)cc1 class_name=N

What was the test verdict on Cc1ccc(C[n+]2c(-c3ccc(C)cc3)cc(-c3ccc(C)cc3)cc2-c2ccc(C)cc2)cc1 ?
Y

What was the test verdict on Cc1ccc(NN2C(=O)C=C(c3ccccc3)C2=O)cc1 ?
Y

What was the test verdict on COc1cc(/C=C(/C#N)c2nc3ccccc3[nH]2)ccc1OCC(=O)Nc1ccccc1C ?
Y

What was the test verdict on CCOC(=O)/C(=C\c1cccc(O)c1)c1nc2sc(C)c(C)c2c(=O)[nH]1 ?
Y

What was the test verdict on COCCN=c1scc(-c2cccs2)n1/N=C/c1ccc(O)c(O)c1O ?
N

What was the test verdict on O=C(/C=C/Sc1ccccc1)c1ccc(Cl)cc1 ?
Y

What was the test verdict on N=c1c(-c2nc3ccccc3[nH]2)cc(C(=O)c2ccco2)nn1-c1ccccc1 ?
Y

* * *

# key: entry, value: EC50
system tested: CHO-CHOP luciferase reporter, UPR activation, luminescence
assay summary: CHOP reporter induction, apoptotic UPR branch – CHO-CHOP cells, luciferase luminescence, confirmation (AID 489024);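 further: compounds added alone to reporter cells with no tunicamycin stress co-treatment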
Active and inactive are the calls of the source.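 Rule for the calls: active = compounds whose mean EC50, the dose giving half the maximal reporter activation, is at or below a set limit; inactive = the rest.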

Example entries and their recorded answers appear below.
compound=COc1cc([N+](=O)[O-])cc(/C=N/NC(=O)c2ccc(NC(=O)c3ccc(C)cc3)cc2)c1O metric_name=EC50 endpoint_value="12.3 µM"
compound="CCOc1ccc2nc(SC3CC(=O)N(c4ccc(C)cc4)C3=O)sc2c1 (stereo not given)" metric_name=EC50 endpoint_value="> 80 µM (inactive)"
compound=Cn1nnnc1Sc1ncnc2scc(-c3ccc([N+](=O)[O-])cc3)c12 metric_name=EC50 endpoint_value="12.3 µM"
compound=COc1ccccc1N=c1oc2c(OC)cccc2cc1C(=O)NCc1ccco1 metric_name=EC50 endpoint_value="> 80 µM (inactive)"

Next, consider the following compound.
Report measured EC50; entry is COc1cc(C(=O)Sc2ccc(Cl)cc2)cc(OC)c1OC
15 µM

* * *

system tested: CHO-CHOP luciferase reporter, UPR activation, luminescence
assay summary: CHOP reporter induction, apoptotic UPR branch – CHO-CHOP cells, luciferase luminescence, confirmation (AID 489024);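 further: compounds added alone to reporter cells with no tunicamycin stress co-treatment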
Calls of active or inactive are those of the source.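 The calls were made as follows: active = compounds whose mean EC50, the dose giving half the maximal reporter activation, is at or below a set limit; inactive = the rest.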
// one of yes for active, no for inactive, no free text

compound=CN1CCN(c2ccc(NC(=O)c3ccc([N+](=O)[O-])o3)cc2Cl)CC1 class_name=yes
compound=Cc1ccc(C(=O)/C=C/C(=O)c2ccc(C)cc2)cc1 class_name=yes
compound=CCOC(=O)C(CC)(CC)C(=O)/C=C/c1cccc(Br)c1 class_name=yes
compound=Cc1cccc2sc(NC(=O)c3cc(S(=O)(=O)N(C)C)ccc3N3CCCC3)nc12 class_name=no
compound=COc1ccccc1N=Cc1c(O)c2ccccc2oc1=O class_name=yes

What was the test verdict on O=C1NN(c2cccc(Br)c2)C(=O)/C1=C/c1cccs1 ?
no

What was the test verdict on O=C(Oc1ccccc1/C=C\C(=O)c1cc2ccccc2o1)c1ccccc1 ?
yes

What was the test verdict on O=S1(=O)Nc2c(ccc3cccnc23)-c2ccccc21 ?
yes

* * *

system tested: CHO-CHOP luciferase reporter, UPR activation, luminescence
assay summary: CHOP reporter induction, apoptotic UPR branch – CHO-CHOP cells, luciferase luminescence, confirmation (AID 489024);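 further: compounds added alone to reporter cells with no tunicamycin stress co-treatment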
Active and inactive are the calls of the source.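 How the source made its calls: active means compounds whose mean EC50, the dose giving half the maximal reporter activation, is at or below a set limit; inactive means the rest.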
// one of yes (1) for active, no (0) for inactive, no free text

structure_notation=CN=c1scc(-c2ccco2)n1/N=C/c1ccc(O)c(O)c1 class_name="yes (1)"

What was the test verdict on CCOC(=O)c1cnc(-n2nc(C)cc2C)nc1Nc1ccc(N(C)C)cc1 ?
yes (1)

What was the test verdict on CCOC(=O)C(=Cc1ccc(-n2ccnc2)cc1)C(=O)OCC ?
yes (1)

What was the test verdict on Cc1ccc(Sc2nc(-c3ccccc3)nnc2C(F)(F)F)cc1 ?
no (0)

What was the test verdict on Cc1cc(C(=O)c2ccc(C(C)(C)C)cc2)c(NC(=O)CCl)s1 ?
yes (1)

What was the test verdict on O=C(N/N=C\c1cc2c(cc1Cl)OCO2)c1ccc(Br)s1 ?
no (0)

What was the test verdict on FC(F)(F)c1nnc(-c2ccccc2)nc1Sc1ccccc1 ?
yes (1)

What was the test verdict on COC(=O)c1cc(=O)n(CCc2ccc(OC)c(OC)c2)c(=Nc2ccc(F)c(Cl)c2)s1 ?
yes (1)

What was the test verdict on COc1ccc(-c2ccc(-c3nc4c(c(=O)[nH]c(=O)n4Cc4ccccc4)n3C)o2)c([N+](=O)[O-])c1 ?
no (0)

What was the test verdict on O=S(=O)(Nc1cccc2cccnc12)c1ccc(S(=O)(=O)N2CCCC2)cc1 ?
yes (1)

* * *

system tested: CHO-CHOP luciferase reporter, UPR activation, luminescence
assay summary: CHOP reporter induction, apoptotic UPR branch – CHO-CHOP cells, luciferase luminescence, confirmation (AID 489024);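 further: compounds added alone to reporter cells with no tunicamycin stress co-treatment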
Calls of active or inactive are those of the source.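 The calls were made as follows: active = compounds whose mean EC50, the dose giving half the maximal reporter activation, is at or below a set limit; inactive = the rest.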
metric name: EC50

compound=Cc1ccn2cc(-c3ccc(O)c(O)c3)nc2c1 system_tested="CHO-CHOP luciferase reporter, UPR activation, luminescence" metric_name=EC50 endpoint_value="5.31 µM"
compound=Cc1ccc(S(=O)(=O)Nc2cccc3cccnc23)cc1 system_tested="CHO-CHOP luciferase reporter, UPR activation, luminescence" metric_name=EC50 endpoint_value="4.41 µM"
compound=CSC(=S)N/N=C(\C)c1ccccc1 system_tested="CHO-CHOP luciferase reporter, UPR activation, luminescence" metric_name=EC50 endpoint_value="12.3 µM"
compound=O=C(NCCc1ccc(F)cc1)c1coc(=O)c(Br)c1 system_tested="CHO-CHOP luciferase reporter, UPR activation, luminescence" metric_name=EC50 endpoint_value="9.53 µM"
compound="CCCOc1ccc(N2C(=O)CC(N(O)c3ccccc3)C2=O)cc1 (stereo not drawn)" system_tested="CHO-CHOP luciferase reporter, UPR activation, luminescence" metric_name=EC50 endpoint_value="7.23 µM"
compound=Cc1noc2ncnc(Sc3ccc(Br)cc3)c12 system_tested="CHO-CHOP luciferase reporter, UPR activation, luminescence" metric_name=EC50 endpoint_value="9.31 µM"
compound=Cc1nc([N+](=O)[O-])c(Br)n1CC(=O)c1ccc(Br)cc1 system_tested="CHO-CHOP luciferase reporter, UPR activation, luminescence" metric_name=EC50 endpoint_value="> 80 µM (inactive)"
compound=Nc1nnnn1/N=C/C(Br)=C/c1ccccc1 system_tested="CHO-CHOP luciferase reporter, UPR activation, luminescence" metric_name=EC50 endpoint_value="2.22 µM"

Report measured EC50; entry is Cn1c(=O)c2c(SCC(=O)Nc3ccccc3F)nc(-c3ccccc3F)nc2n(C)c1=O
12.6 µM

Report measured EC50; entry is N#Cc1cc([N+](=O)[O-])c(-n2nnc3ccccc32)c([N+](=O)[O-])c1
18.5 µM

Provenance of the data: PubChem BioAssay AID489024
